Molecular target: MerTK (Homo sapiens, UniProt Q12866)
Construct: endogenous in cells; host or cells: Jurkat cells
Sequence (Q12866 21-999): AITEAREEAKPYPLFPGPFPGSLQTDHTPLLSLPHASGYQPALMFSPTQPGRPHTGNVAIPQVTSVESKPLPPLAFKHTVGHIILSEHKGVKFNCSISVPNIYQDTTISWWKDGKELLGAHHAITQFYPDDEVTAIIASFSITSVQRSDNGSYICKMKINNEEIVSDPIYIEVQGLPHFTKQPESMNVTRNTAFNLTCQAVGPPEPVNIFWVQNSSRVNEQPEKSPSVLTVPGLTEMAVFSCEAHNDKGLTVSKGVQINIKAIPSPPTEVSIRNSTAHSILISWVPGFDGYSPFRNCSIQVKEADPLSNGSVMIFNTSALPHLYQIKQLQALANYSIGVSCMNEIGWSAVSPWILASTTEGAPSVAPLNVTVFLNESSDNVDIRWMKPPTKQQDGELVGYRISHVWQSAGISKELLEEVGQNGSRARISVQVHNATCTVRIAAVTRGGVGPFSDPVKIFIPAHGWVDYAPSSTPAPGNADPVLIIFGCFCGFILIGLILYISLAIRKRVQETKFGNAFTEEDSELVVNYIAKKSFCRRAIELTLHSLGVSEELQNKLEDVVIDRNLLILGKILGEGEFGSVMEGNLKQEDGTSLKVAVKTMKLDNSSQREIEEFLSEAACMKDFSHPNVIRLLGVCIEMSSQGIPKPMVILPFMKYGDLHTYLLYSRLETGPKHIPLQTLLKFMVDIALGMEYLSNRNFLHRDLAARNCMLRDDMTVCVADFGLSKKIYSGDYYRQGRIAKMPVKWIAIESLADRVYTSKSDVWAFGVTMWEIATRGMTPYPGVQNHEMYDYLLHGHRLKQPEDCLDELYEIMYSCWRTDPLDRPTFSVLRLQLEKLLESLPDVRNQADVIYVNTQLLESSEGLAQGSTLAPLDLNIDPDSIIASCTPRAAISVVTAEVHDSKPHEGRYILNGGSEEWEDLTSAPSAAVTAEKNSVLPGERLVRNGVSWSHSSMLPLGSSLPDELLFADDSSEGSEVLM
Experiment: MerTk degradation in Jurkat cells (Western blot)
Format: cell-based
Conditions: Jurkat, 4 h, 0.001-1 μM, 4 hour-incubation at 37° C., read-out: Jurkat Max % MerTK Degradation
Where a name gives a salt, the structure may show the parent alone.
MEASURE: Dmax

Cn1c(=O)n([C@H]2CCC(=O)NC2=O)c2cccc(CCCOCCCOCCCNCc3ccc(-c4cn([C@H]5CC[C@H](O)CC5)c5nc(NCCC(F)(F)F)ncc45)cc3)c21 [I-52, hydrochloride] | > 50%
CCCCNc1ncc2c(-c3ccc(S(=O)(=O)N4CCN(C(=O)NCCCOCCCOCCCNc5cccc6c5C(=O)N(C5CCC(=O)NC5=O)C6=O)CC4)cc3)nn([C@H]3CC[C@H](O)CC3)c2n1 (some centres unmarked) | > 50%
C[C@H](CC(F)(F)F)Nc1ncc2c(-c3ccc(CN4CCN(CCCOC5CN(Cc6ccc7c(c6)n(C)c(=O)n7C6CCC(=O)NC6=O)C5)CC4)cc3)cn([C@H]3CC[C@H](O)CC3)c2n1 (some centres unmarked) | > 50%
Cn1c(=O)n([C@H]2CCC(=O)NC2=O)c2ccc(CCCOCCCOCCN3CCN(Cc4ccc(-c5cn([C@H]6CC[C@H](O)CC6)c6nc(NCCC(F)(F)F)ncc56)cc4)CC3)cc21 | > 50%
Cn1c(=O)n([C@H]2CCC(=O)NC2=O)c2ccc(CCCC3CN(C4CCN(Cc5ccc(-c6cn([C@H]7CC[C@H](O)CC7)c7nc(NCCC(F)(F)F)ncc67)cc5)CC4)C3)cc21 | > 50%
CCC[C@@H](C)Nc1ncc2c(n1)n([C@H]1CC[C@H](O)CC1)cc2[C@H]1CC[C@H](CN2CCN(CCCO[C@H]3CCN(Cc4ccc5c(c4)n(C)c(=O)n5C4CCC(=O)NC4=O)C3)CC2)CC1 (some centres unmarked) | 20 to 50%
CCCCNc1ncc2c(-c3ccc(CN4CCN(CCOCCOCCOCCOCCNc5ccc6c(c5)n(C)c(=O)n6[C@H]5CCC(=O)NC5=O)CC4)cc3)cn([C@H]3CC[C@H](O)CC3)c2n1 | > 50%
Cc1ncsc1-c1ccc(CNC(=O)[C@@H]2C[C@@H](O)CN2C(=O)[C@@H](NC(=O)C2(F)CC2)C(C)(C)C)c(OCCCCCCN2CCN(Cc3ccc(-c4cn([C@H]5CC[C@H](O)CC5)c5nc(NCCC(F)(F)F)ncc45)cc3)CC2)c1 | > 50%
CCCCNc1ncc2c(-c3ccc(S(=O)(=O)N4CCN(C(=O)COCCOCCOCCOCCNc5cccc6c5C(=O)N(C5CCC(=O)NC5=O)C6=O)CC4)cc3)nn([C@H]3CC[C@H](O)CC3)c2n1 (some centres unmarked) | > 50%
C[C@@H](CC(F)(F)F)Nc1ncc2c(-c3ccc(CN4CCN(CCCO[C@H]5CCN(Cc6ccc7c(c6)n(C)c(=O)n7C6CCC(=O)NC6=O)C5)CC4)cc3)cn([C@H]3CC[C@H](O)CC3)c2n1 (some centres unmarked) | 20 to 50%
CC(c1ccc(-c2cn([C@H]3CC[C@H](O)CC3)c3nc(NCCC(F)(F)F)ncc23)cc1)N1CCN(CCCOCCCc2ccc3c(c2)n(C)c(=O)n3C2CCC(=O)NC2=O)CC1 (some centres unmarked) | > 50%
CC(O)c1ccc2c(c1)n(C)c(=O)n2C1CCC(=O)NC1=O (centres unmarked) | > 50%
CCCCNc1ncc2c(-c3ccc(CN4CCN(CCCOCCCOCCCc5ccc6c(c5)n(C)c(=O)n6[C@H]5CCC(=O)NC5=O)CC4)cc3)cn([C@H]3CC[C@H](O)CC3)c2n1 [I-62, dihydrochloride] | > 50%
Cn1c(=O)n([C@H]2CCC(=O)NC2=O)c2ccc(COCCCN3CCN(Cc4ccc(-c5cn([C@H]6CC[C@H](O)CC6)c6nc(NCCC(F)(F)F)ncc56)cc4)CC3)cc21 | > 50%
COc1ccc(Nc2nc(Nc3cc(OCCOCCOCCOCCOCC(=O)N[C@H](C(=O)N4C[C@H](O)C[C@H]4C(=O)NCc4ccc(-c5scnc5C)cc4)C(C)(C)C)c(OC)cc3C)ncc2Cl)c(NS(C)(=O)=O)c1 | 20 to 50%
Cn1c(=O)n([C@H]2CCC(=O)NC2=O)c2ccc(CCCN3CC(C4CCN(Cc5ccc(-c6cn([C@H]7CC[C@H](O)CC7)c7nc(NCCC(F)(F)F)ncc67)cc5)CC4)C3)cc21 | > 50%
Cn1c(=O)n([C@H]2CCC(=O)NC2=O)c2cccc(COCCCN3CCN(Cc4ccc(-c5cn([C@H]6CC[C@H](O)CC6)c6nc(NCCC(F)(F)F)ncc56)cc4)CC3)c21 | > 50%
Cn1c(=O)n([C@H]2CCC(=O)NC2=O)c2ccc(C#CCOCCN3CCC(N4CCN(Cc5ccc(-c6cn([C@H]7CC[C@H](O)CC7)c7nc(NCCC(F)(F)F)ncc67)cc5)CC4)CC3)cc21 | > 50%
CCCCNc1ncc2c(-c3ccc(S(=O)(=O)N4CCN(CCOCCOCCOCCOCCCc5ccc6c(c5)n(C)c(=O)n6[C@H]5CCC(=O)N(C)C5=O)CC4)cc3)cn([C@H]3CC[C@H](O)CC3)c2n1 | < 20%
Cn1c(=O)n([C@H]2CCC(=O)NC2=O)c2ccc(CCCOCCCN3CCN(Cc4ccc(-c5cn(C6CCCCC6)c6nc(NCCC(F)(F)F)ncc56)cc4)CC3)cc21 | > 50%

* * *

Target: MerTK (Homo sapiens, UniProt Q12866)
Construct: endogenous in cells; host or cells: Jurkat cells
Assay: MerTk degradation in Jurkat cells (Western blot)
Format: cell-based
Conditions: Jurkat, 4 h, 0.001-1 μM, 4 hour-incubation at 37° C., read-out: Jurkat Max % MerTK Degradation
MEASURE: Dmax

CCCCNc1ncc2c(-c3ccc([C@H](C)N4CCN(CCCOCCCc5ccc6c(c5)n(C)c(=O)n6C5CCC(=O)NC5=O)CC4)cc3)cn([C@H]3CC[C@H](O)CC3)c2n1 (stereo partly drawn) | > 50%
CCCCNc1ncc2c(-c3ccc(CN4CCN(CCOCCOCCOCCOCCNc5cccc6c5n(C)c(=O)n6C5CCC(=O)NC5=O)CC4)cc3)cn([C@H]3CC[C@H](O)CC3)c2n1 (stereo partly drawn) | > 50%
Cn1c(=O)n([C@H]2CCC(=O)NC2=O)c2ccc(CCCC3CCN(C4CCN(Cc5ccc(-c6cn([C@H]7CC[C@H](O)CC7)c7nc(NCCC(F)(F)F)ncc67)cc5)CC4)CC3)cc21 | > 50%

* * *

We begin with a simple list: items and their reported Dmax.
Target: MerTK (Homo sapiens, UniProt Q12866)
Construct: endogenous in cells; host or cells: Jurkat cells
Test: MerTk degradation in Jurkat cells (Western blot)
Assay type: cell-based
Conditions: Jurkat, 4 h, 0.001-1 μM, 4 hour-incubation at 37° C., read-out: Jurkat Max % MerTK Degradation
Counter-ions that a name gives are not always drawn.
MEASURE: Dmax

Cn1c(=O)n([C@H]2CCC(=O)NC2=O)c2ccc(CCCOCCCN3CCN(Cc4cccc(-c5cn([C@H]6CC[C@H](O)CC6)c6nc(NCCC(F)(F)F)ncc56)c4)CC3)cc21 | > 50%
Cn1c(=O)n([C@H]2CCC(=O)NC2=O)c2ccc(CCCOCCOCCOCCN3CCN(Cc4ccc(-c5nn([C@H]6CC[C@H](O)CC6)c6nc(NCCC(F)(F)F)ncc56)cc4)CC3)cc21 | > 50%
Cn1c(=O)n([C@H]2CCC(=O)NC2=O)c2ccc(CCCOCCOCCOCCNCc3ccc(-c4cn([C@H]5CC[C@H](O)CC5)c5nc(NCCC(F)(F)F)ncc45)cc3)cc21 | > 50%
Cn1c(=O)n([C@H]2CCC(=O)NC2=O)c2ccc(CCCOCCOCCN3CCN(Cc4ccc(-c5cn([C@H]6CC[C@H](O)CC6)c6nc(NCCC(F)(F)F)ncc56)cc4)CC3)cc21 | > 50%
C[C@@H](Nc1ncc2c(-c3ccc(CN4CCN(CCCOCCCc5ccc6c(c5)n(C)c(=O)n6C5CCC(=O)NC5=O)CC4)cc3)cn([C@H]3CC[C@H](O)CC3)c2n1)C(F)F (stereo partly shown) | > 50%
CCCCNc1ncc2c(-c3ccc(CN4CCN(CCOCCOCCOCCOCCCc5ccc6c(c5)n(C)c(=O)n6[C@H]5CCC(=O)NC5=O)CC4)cc3F)cn([C@H]3CC[C@H](O)CC3)c2n1 | > 50%
Cn1c(=O)n([C@H]2CCC(=O)NC2=O)c2ccc(CCO[C@H]3C[C@H](N4CCN(Cc5ccc(-c6cn([C@H]7CC[C@H](O)CC7)c7nc(NCCC(F)(F)F)ncc67)cc5)CC4)C3)cc21 | > 50%
Cc1ccc(CNc2ncc(-c3ccc(CN4CCN(CCOCCOCCOCCOCCNc5cccc6c5C(=O)N(C5CCC(=O)NC5=O)C6=O)CC4)cn3)c(N[C@H]3CC[C@H](O)CC3)n2)cc1 (stereo partly shown) | 20 to 50%
Cc1ncsc1-c1ccc(CNC(=O)[C@@H]2C[C@@H](O)CN2C(=O)[C@@H](NC(=O)C2(F)CC2)C(C)(C)C)c(OCCOCCOCCN2CCN(Cc3ccc(-c4cn([C@H]5CC[C@H](O)CC5)c5nc(NCCC(F)(F)F)ncc45)cc3)CC2)c1 | > 50%
C[C@@H](CC(F)(F)F)Nc1ncc2c(-c3ccc(CN4CCN(CCCOCCCc5ccc6c(c5)n(C)c(=O)n6C5CCC(=O)NC5=O)CC4)cc3)cn([C@H]3CC[C@H](O)CC3)c2n1 (stereo partly shown) | > 50%
O=C1CC[C@H](n2c3ccc(NCCOCCOCCNCc4ccc(-c5cn([C@H]6CC[C@H](O)CC6)c6nc(NCCC(F)(F)F)ncc56)cc4)cc3c3cccnc32)C(=O)N1 [I-99, trihydrochloride] | > 50%
Cn1c(=O)n([C@H]2CCC(=O)NC2=O)c2ccc(CCCOCCCCN3CCN(Cc4ccc(-c5cn([C@H]6CC[C@H](O)CC6)c6nc(NCCC(F)(F)F)ncc56)cc4)CC3)cc21 | > 50%
CCC[C@H](C)Nc1ncc2c(-c3ccc(CN4CCN(CCCO[C@H]5CCN(Cc6ccc7c(c6)n(C)c(=O)n7C6CCC(=O)NC6=O)C5)CC4)cc3)cn([C@H]3CC[C@H](O)CC3)c2n1 (stereo partly shown) | > 50%
CCC[C@H](C)Nc1ncc2c(n1)n([C@H]1CC[C@H](O)CC1)cc2[C@H]1CC[C@@H](CN2CCN(CCCO[C@H]3CCN(Cc4ccc5c(c4)n(C)c(=O)n5C4CCC(=O)NC4=O)C3)CC2)CC1 (stereo partly shown) | > 50%
Cn1c(=O)n([C@H]2CCC(=O)NC2=O)c2ccc(CCCOCCOCC3CCN(C[C@H]4CC[C@H](c5cn([C@H]6CC[C@H](O)CC6)c6nc(NCCC(F)(F)F)ncc65)CC4)CC3)cc21 | > 50%
CCC[C@H](C)Nc1ncc2c(n1)n([C@H]1CC[C@H](O)CC1)cc2[C@H]1CC[C@@H](CN2CCN(C3CC(OCCc4ccc5c(c4)n(C)c(=O)n5C4CCC(=O)NC4=O)C3)CC2)CC1 (stereo partly shown) | > 50%
CCC[C@H](C)Nc1ncc2c(-c3ccc(CN4CCN(CCCOC5CN(Cc6ccc7c(c6)n(C)c(=O)n7C6CCC(=O)NC6=O)C5)CC4)cc3)cn([C@H]3CC[C@H](O)CC3)c2n1 (stereo partly shown) | > 50%
Cc1ncsc1-c1ccc(CNC(=O)[C@@H]2C[C@@H](O)CN2C(=O)[C@@H](NC(=O)COCCOCCOCCOCCN2CCN(Cc3ccc(-c4cn([C@H]5CC[C@H](O)CC5)c5nc(NCCC(F)(F)F)ncc45)cc3)CC2)C(C)(C)C)cc1 | 20 to 50%
COCCNc1ncc2c(-c3ccc(CN4CCN(CCOCCOCCOCCOCCNc5cccc6c5C(=O)N(C5CCC(=O)NC5=O)C6=O)CC4)cc3)cn([C@H]3CC[C@H](O)CC3)c2n1 (stereo partly shown) [I-15, diformate] | > 50%

Values were extracted from patent US20260042762A1.
